Data credit: the supplement of paper PMC7125110

B1: glmS ribozyme (parent)
chain: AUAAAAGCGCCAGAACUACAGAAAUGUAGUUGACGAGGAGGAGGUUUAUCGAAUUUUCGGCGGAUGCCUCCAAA

# Variants of: B1
# test name: self-cleavage kobs at 2500 uM GlcN6P; higher = faster cleavage; RNA array
# condition summary: with glucosamine-6-phosphate
This sample holds only a part of the variants without activity.
property name: self-cleavage kobs at 2500 uM GlcN6P

Query block: Data request, read-out self-cleavage kobs at 2500 uM GlcN6P, for C10G A14C U30G G43A
Result block: < 1e-05 s⁻¹

Query block: Also need G13C G35C G44U U56A C61U , thanks.
Result block: < 1e-05 s⁻¹

Query block: Same thing, different variant: G9C U31C C67U
Result block: < 1e-05 s⁻¹
